Collected self-cleavage kobs at 640 uM GlcN6P values appear next to each entry.
B1: glmS ribozyme (parent)
chain: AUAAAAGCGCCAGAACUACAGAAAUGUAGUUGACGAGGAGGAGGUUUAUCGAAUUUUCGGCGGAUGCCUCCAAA

- Variants of: B1
- test-method-notes: self-cleavage kobs at 640 uM GlcN6P; higher = faster cleavage; RNA array
- particulars: with glucosamine-6-phosphate
Variants at the floor of the assay were thinned out.

{"columns": ["item-sequence", "self-cleavage kobs at 640 uM GlcN6P"],
 "data": [
  ["AUAAAAGCGCCAGAACUACAGAAAUGUAGUUGACGAGGAGGAGGUUUAUCGAAUUUACGUCGGAUGCCUCCAAA [U57A G60U]", "< 1e-05 s⁻¹"],
  ["AUAAAAGCGUCAGAACUACAGAAAUGUAGUUGACGAGGAGGAGGUUCAUCGAAUGUUCGGCGGAUGCCUCCAAA [C10U U47C U55G]", "< 1e-05 s⁻¹"],
  ["AUAAAAGCGCCAGAACUACAGAAAUGUAGUUGACGAGGAGGAGAUUUAUCGAACUUUCGGCGGAGGCGUCCAAA [G44A U54C U65G C68G]", "< 1e-05 s⁻¹"],
  ["AUAAAAGCGCCAGAGCUACAGAAAUGUAGUUGACGAGGAGGAGGUUUAUCGAAUUUUAGGCGGAUGCCGCCAAA [A15G C58A U69G]", "0.000122 s⁻¹"],
  ["AUAAAAGCGCCAGAACUACAGAAAUGUAGUCGACGAGGAGGAGGUUUAUCGAAAUUUCGGCGGAUGCCUCCAAA [U31C U54A]", "0.00122 s⁻¹"],
  ["AUAAAAGCGCCAGCACUACAGAAAUGUAGUUGACGAGGAGGAGGUUUAUCGAAUUUUGGGCGGAUGUCUCCAAA [A14C C58G C67U]", "5.66e-05 s⁻¹"],
  ["AUAAAAGCGCCAGAACUACAGAAAUGUAAUUGACGAGGAGGAGGGUUAUCGAAUUUUCGGCGGAUGCCUCCAAA [G29A U45G]", "0.000156 s⁻¹"],
  ["AUAAAAGCGCAAGAACUACAGAAAUGUAGUUGACGAGGAGGAGGUUUUUCGAAUUUUCGGCGGAUGCCUACAAA [C11A A48U C70A]", "9.74e-05 s⁻¹"],
  ["AUAAAAGCGCCAGAACUACAGAAAUGUAGUUGACGAGGAGGAGGUUUAUCGAGUUUUCGUCGGAUGCCUCCAAA [A53G G60U]", "< 1e-05 s⁻¹"],
  ["AUAAAAGCGGCAGAACUACAGAAAUGUAGUUGACGAGGAGGAGCUUUAUCGAAUUUUCGGCGGAUGCCUCCAAA [C10G G44C]", "< 1e-05 s⁻¹"],
  ["AUAAAAGCGCCAGAACUACAGAAAUGUAGUUGACGAGGAGGAGGUCAAUCGAAUUUUCGGCGGAUGCCUCCAAA [U46C U47A]", "0.000719 s⁻¹"],
  ["AUAAAAGCGCCAGAACUACAGAAAUGUAGUUCACGAUGAGGAGGUUUAUCCAAUUUUCGGCGGAUGCCUCCAAA [G32C G37U G51C]", "< 1e-05 s⁻¹"],
  ["AUAAAAGCGCCAGAACUACAGAAAUGUAGGUGACGAGGAGGAGGUUUAUCAAAUUUUCGGCGGAUGCCUCCAAA [U30G G51A]", "< 1e-05 s⁻¹"],
  ["AUAAAAGCGCCAGAACUACAGAAAUGUAGUUGACGAGGAGGAUGUUUAUCGAAUUUUCCGCGGAUGCCUCCAAA [G43U G59C]", "< 1e-05 s⁻¹"],
  ["AUAAAAGCGCCAGAACUACAGAAAUGUAGUUGACGAGGAGCAGGUUUAUCGAAUUUUCGGCGGAUGCUUCCAAA [G41C C68U]", "< 1e-05 s⁻¹"],
  ["AUAAAAGCGCCAGAACUACAGAAAUGUAGUUGACGAGGAUGAGGUUUAUAGAAUUUUCGGCGGAUUCCUCCAAA [G40U C50A G66U]", "< 1e-05 s⁻¹"],
  ["AUAAAAUCGCCAGAACUACAGAAAUGUAGUUGACGAGGAGGAGGUUUAUCGAAUUUUCGGCUGAUGCCUCCAAA [G7U G62U]", "< 1e-05 s⁻¹"],
  ["AUAAAAGCGCCAGGACUACAGAAAUGUAGUUGACGAGGAGGAGGUUUAUCGAAUUUUCGGCGUAUGCCUCCAAA [A14G G63U]", "< 1e-05 s⁻¹"],
  ["AUAAAAGGGCCAGAACUACAGAAAUGUAGUUGACGAGGAGGAGCUUUAUCGAAUUUUCGGCGGAUGCCUCCAAA [C8G G44C]", "< 1e-05 s⁻¹"],
  ["AUAAAAGCGCCAGAACUACAGAAAUGUAGUUGACGACGAGGAGGUUUAUCGAAUUUACGGCGGAUGCCUCCAAA [G37C U57A]", "< 1e-05 s⁻¹"],
  ["AUAAAAGCGCCAGAACUACAGAAAUGUAGUUGACGUGGAGGAGGUUUAUCGAAUUUUCGGGGGAUGCCUGCAAA [A36U C61G C70G]", "9.55e-05 s⁻¹"],
  ["AUAAAAGCGCCAGAACUACAGAAAUGUAGUUGACGAGGAGGAGAUUUAUCGAAUUUUCGGAGGAUGCCUCUAAA [G44A C61A C71U]", "< 1e-05 s⁻¹"],
  ["AUAAAAGCGCCAGAACUACAGAAAUGUAGUUGACGACGAGUAGGUUUAUCGAAUUUUCGGCGGAUGCCUCCAAA [G37C G41U]", "< 1e-05 s⁻¹"],
  ["AUAAAAGCGCCAGAACUACAGAAAUGUAGUCGACGAGGAGGAGGUUCAUCGAAUUUUCGGCGGAUGCCUCCAAA [U31C U47C]", "0.000111 s⁻¹"],
  ["AUAAAAGCGCCACAACUACAGAAAUGUAGUUGGCGAGGAGGAGGUUUAUCGAAUUUUCGGCGGAUGCCUCCAAA [G13C A33G]", "< 1e-05 s⁻¹"],
  ["AUAAAAGCGCCAGAACUACAGAAAUGUAGUUGACGAGGAGGAGAUUUAUCGAAUUUUCGGCGGAUACCUCCAAA [G44A G66A]", "0.000259 s⁻¹"],
  ["AUAAAUGCGCCAGAACUACAGAAAUGUAGUUGACGAGGAGGAGGUUUAUCGAACUUUCGGCGGAUGCCUCCAAA [A6U U54C]", "5.25e-05 s⁻¹"],
  ["AUAAAAGCGCCAAAACUACAGAAAUGUAGUUAACGAGGAGGAGGUUUAUCGAAUUUUCGGCGGAUGCCUCCAAA [G13A G32A]", "0.000518 s⁻¹"],
  ["AUAAAAGCGCCAGAACUACAGAAAUGUAGUUGACGAGGAGGAGAUUUAUCGAAUUAUCGGCGGAUGCCUUCAAA [G44A U56A C70U]", "< 1e-05 s⁻¹"],
  ["AUAAAAGCGCCAGAACUACAGAAAUGUAGUUGACGAGGAGGAGGUUUUCCGAAUACUCGGCGGAUGCCCCCAAA [A48U U49C U55A U56C U69C]", "< 1e-05 s⁻¹"],
  ["AUAAAAGCGCCAGAACUACAGAAAUGUAGUUGACGAGGAGGAGGUAUAUCGAAUUUUCGACGGAUGCCUCCAAA [U46A G60A]", "< 1e-05 s⁻¹"],
  ["AUAAAAGCGCCAGAACUACAGAAAUGUAAUUGACGAGGAGGAGGUUUAUCGAAUUUUCGGCGGAUGCCUCGAAA [G29A C71G]", "9.26e-05 s⁻¹"],
  ["AUAAAAGCGCCAGAACUACAGAAAUGUAGUUGACGCGGAAGAGGUUUAUCGAAUUUUCGGCGGAUGCCUCCAAA [A36C G40A]", "< 1e-05 s⁻¹"],
  ["AUAAAAGCGCCAGAUCUACAGAAAUGUAGUUGACUAGGAGGAGGUUUAUCGAAUUUUCAGCGGAUGCCUCCAAA [A15U G35U G59A]", "< 1e-05 s⁻¹"],
  ["AUAAAAGCGCCAGAACUACAGAAAUGUAGUUGACGAGGAGGUGGUUUAUGGAAUUUUCGGCAGAUGCCUCUAAA [A42U C50G G62A C71U]", "< 1e-05 s⁻¹"],
  ["AUAAAUGCGCCAGAACUACAGAAAUGUAGUUGACGAGGAGGAGGUUUAUCGAAUUUUCGCCGGAUGACUCCAAA [A6U G60C C67A]", "< 1e-05 s⁻¹"],
  ["AUAAAAGCGCCAGAACUACAGAAAUGUAGUUGACGAGGUUGAGGUUUAUCGAAUUUUCGGCGGAUGACUCCAAA [A39U G40U C67A]", "0.000118 s⁻¹"],
  ["AUAAAAGCGCCAGAACUACAGAAAUGUAGUUGACGAGGAGGAGGUUUAUCGAAUUUUCGGCGGAUGCCUUAAAA [C70U C71A]", "0.00013 s⁻¹"],
  ["AUAAAAGCGCCAGAACUACAGAAAUGUAGCUGACGCGGAGGAGGUUUAUCGAAUUUUCGGCGGAUGCCGCCAAA [U30C A36C U69G]", "0.000264 s⁻¹"],
  ["AUAAAAGCGCCAGCACUACAGAAAUGUAGUUGACGAGGAGGAGGUUUAUCGAAUAGUCGGCGGAUGCCUCCAAA [A14C U55A U56G]", "0.0195 s⁻¹"],
  ["AUAAAAGCGCAAGAACUACAGAAAUGUAGUUGACAAGGAGGAGGUUUAUCGAAUUUUCGGCGUCUGCCUCCAAA [C11A G35A G63U A64C]", "< 1e-05 s⁻¹"],
  ["AUAAAAGCGCCAGAACUACAGAAAUGUAGUUGACGAGGAGGAAAUUUAUCGAAUUUUCGGCGGAUGCUUCCAAA [G43A G44A C68U]", "0.000159 s⁻¹"],
  ["AUAAAAGCGCCAGAAUUACAGAAAUGUAGUUGACGAGGAGGAGGUAUAUCGUAUUUUCGGCGGAUGCCUCCAAA [C16U U46A A52U]", "< 1e-05 s⁻¹"],
  ["AUAAAACCGCCAGAACUACAGAAAUGUAGUUGACGAGGAGGAGGUUUAUAGAAUUUUCGGCGGAUGCCUCCAAA [G7C C50A]", "< 1e-05 s⁻¹"],
  ["AUAAAAGCUCCAGAACUACAGAAAUGUAGUUGACGCGGAGGAGGUUUAUCGAAUUUUCGGCGGAUGCCUCCAAA [G9U A36C]", "< 1e-05 s⁻¹"],
  ["AUAAAAGCGCCAGAACUACAGAAAUGUAUUUGACGAGGAGGAGGUUUAUCGAAUUUUCGGCGGAUGUCUCCAAA [G29U C67U]", "0.000384 s⁻¹"]
]}
